Source listed as the RNAGym collection of RNA variant scans (doi:10.1021/acssynbio.7b00057).

B1: Pistol ribozyme (parent)
chain: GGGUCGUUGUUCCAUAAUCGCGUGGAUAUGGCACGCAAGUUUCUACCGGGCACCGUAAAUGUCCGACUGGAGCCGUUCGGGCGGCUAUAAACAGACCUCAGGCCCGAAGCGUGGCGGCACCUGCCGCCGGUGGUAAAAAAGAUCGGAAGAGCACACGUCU

variants of: B1; test: aptazyme ON/OFF ratio, guanine; higher = stronger switching; co-transcriptional cleavage with and without guanine
PROPERTY_NAME: aptazyme ON/OFF ratio
Respond numerically, and do not add a unit to the figure.

Below are worked cases with known answers.
>>> reported_result("U7G C12G")
1.25
>>> reported_result("U7G G9U U11G C12U")
1.2
>>> reported_result("U7C U8A G9U U10G C12G")
1.08

Please look up its aptazyme ON/OFF ratio: U7C G9A U11A C12G 1.28

Would you kindly share the measured aptazyme ON/OFF ratio for U7C U10A ? 1.12

If you can, please state the reported aptazyme ON/OFF ratio value of U7G U10A C13G . 1.12

Quick one: aptazyme ON/OFF ratio of G9U U11C ? 2.53

Entry U8G G9A U10A U11C C13U has what aptazyme ON/OFF ratio? 1.01

Need aptazyme ON/OFF ratio of U7A U8A U10G U11G C12A C13U , thanks. 1.34

# lookup: aptazyme ON/OFF ratio of U7G G9C U11A C12G C13G 1.23

Which value of aptazyme ON/OFF ratio has been reported for U7A U8C U10A C12G C13U in the records? 1.26

Requested field: aptazyme ON/OFF ratio. Item: U7C U8A G9A U10C U11G C13A 1.15

I'd like to know its aptazyme ON/OFF ratio. The variant in question is U7G G9A U10G U11G C12A C13U 1.1

Reported aptazyme ON/OFF ratio, variant U7C U8C G9C U11A C12A : ____ 1.23

aptazyme ON/OFF ratio for U8G G9A U10C U11C C12G C13A ? 1.09

Look up aptazyme ON/OFF ratio: U7C U8C U10G U11G C12A C13A 1.14

Reported aptazyme ON/OFF ratio, variant U7A U8C G9U C12A C13U : ____ 1.27

Could you share which aptazyme ON/OFF ratio value was measured for U7G U8A G9A U10G U11C C12A C13G ? 1.09

So what's the measured aptazyme ON/OFF ratio for this one? U7C G9C U10C U11G C12U C13U 1.09

Request the reported aptazyme ON/OFF ratio associated with U7A U8G U10C U11G C12G C13G 1.35
